# Test system: PPARg:RXRa 90nM:30nM, anti-RXR (NR concentration 90 nM, RXRa partner concentration 30 nM)
# experimentDescription: PBM binding z-score (relative to random genomic background probes); higher = stronger binding; sequences stand for … in GC…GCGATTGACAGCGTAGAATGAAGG
Field: PBM binding z-score. Provide a value for each of the sequences that follow.

IN: Consider the sequence `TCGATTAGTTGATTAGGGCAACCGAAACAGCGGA` and give its recorded PBM binding z-score.
OUT: 2.19

IN: Give the value of PBM binding z-score reported for the following: `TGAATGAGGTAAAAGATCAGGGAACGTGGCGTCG`
OUT: 5.53

IN: Please list PBM binding z-score recorded for the sequence `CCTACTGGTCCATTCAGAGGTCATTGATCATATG`
OUT: 1.05

IN: Quick one: give measured PBM binding z-score for `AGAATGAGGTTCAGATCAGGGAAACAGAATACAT`
OUT: 0.345

IN: Write down PBM binding z-score measured for item `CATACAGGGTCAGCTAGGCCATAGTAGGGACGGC`
OUT: 1.9

IN: Please report PBM binding z-score for the following sequence: `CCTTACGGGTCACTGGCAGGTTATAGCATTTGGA`
OUT: 3.26

IN: Identify PBM binding z-score associated with the sequence `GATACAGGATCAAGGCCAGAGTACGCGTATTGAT`
OUT: 0.052

IN: Given `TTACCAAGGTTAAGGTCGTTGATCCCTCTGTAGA` , respond with its PBM binding z-score.
OUT: 2.99

IN: Tell me PBM binding z-score reported for `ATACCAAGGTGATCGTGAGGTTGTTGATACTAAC`
OUT: 0.112

IN: Provide only the value of recorded PBM binding z-score for `CGCACTAGGTCAGAACAGGACAGTGAAGGATGAT`
OUT: 3.24

IN: Determine from records and report PBM binding z-score for `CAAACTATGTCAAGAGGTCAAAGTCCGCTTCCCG`
OUT: 6

IN: Determine from records and report PBM binding z-score for `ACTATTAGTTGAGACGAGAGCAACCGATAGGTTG`
OUT: 0.081

IN: Give me measured PBM binding z-score, please, for this sequence: `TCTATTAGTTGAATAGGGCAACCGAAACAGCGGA`
OUT: 2.81

IN: Answer with the recorded PBM binding z-score for the sequence listed here: `CGTCCAAGGTCATAGGAGGTCAGTCAAGACAGAT`
OUT: 4.47

IN: Please report the measured PBM binding z-score for `TCTTGTAGAACAAAGGTTAAGAAAGCCGAAGCCT`
OUT: 8.74
